Reference source for all entries: the supplement of paper PMC3545927

Target Or Test System: furin, P09958;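 further: purified furin at 1:10 enzyme:substrate in 50 mM HEPES pH 7.5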
Sequence (P09958 whole entry): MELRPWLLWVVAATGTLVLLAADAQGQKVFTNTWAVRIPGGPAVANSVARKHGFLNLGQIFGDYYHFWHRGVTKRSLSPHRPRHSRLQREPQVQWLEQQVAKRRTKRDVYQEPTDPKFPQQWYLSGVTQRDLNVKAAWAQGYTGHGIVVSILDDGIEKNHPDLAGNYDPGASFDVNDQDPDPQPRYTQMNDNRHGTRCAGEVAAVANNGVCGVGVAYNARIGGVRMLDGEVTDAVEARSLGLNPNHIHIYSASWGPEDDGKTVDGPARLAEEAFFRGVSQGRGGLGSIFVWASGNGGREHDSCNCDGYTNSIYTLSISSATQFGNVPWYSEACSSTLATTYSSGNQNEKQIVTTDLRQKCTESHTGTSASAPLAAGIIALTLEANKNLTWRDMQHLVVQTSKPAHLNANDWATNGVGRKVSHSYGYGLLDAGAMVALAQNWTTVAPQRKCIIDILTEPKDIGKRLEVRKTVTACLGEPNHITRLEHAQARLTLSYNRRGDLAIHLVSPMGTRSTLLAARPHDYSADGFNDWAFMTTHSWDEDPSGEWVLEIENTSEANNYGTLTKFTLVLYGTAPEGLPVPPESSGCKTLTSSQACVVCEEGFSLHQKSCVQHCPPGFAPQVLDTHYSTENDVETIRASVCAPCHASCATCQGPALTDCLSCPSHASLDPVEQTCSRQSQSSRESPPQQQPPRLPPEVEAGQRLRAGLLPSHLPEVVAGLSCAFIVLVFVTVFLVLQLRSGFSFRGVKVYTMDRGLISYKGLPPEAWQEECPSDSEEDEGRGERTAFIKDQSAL
Protocol: furin cleavage Z-score vs untreated control; higher = more cleavage, active = 3.5 or more, inactive = 1 or less, 8 variable residues between constant flanks
Experimental Conditions: 7.5 min
This is one part of the list. No count for the full screen is at hand.
Value Kind: furin cleavage Z-score

Below are worked cases with known answers.
[
  {
    "Residue Codes": "CASQQRQYRSAGNASASA [FS-564]",
    "Value Kind": "furin cleavage Z-score",
    "Result": 2.45
  },
  {
    "Residue Codes": "CAFWVRSKRSAGNASASA [FS-590]",
    "Value Kind": "furin cleavage Z-score",
    "Result": "9.47 (active)"
  },
  {
    "Residue Codes": "CAAKHRTKRSAGNASASA [FS-746]",
    "Value Kind": "furin cleavage Z-score",
    "Result": "14.6 (active)"
  }
]

Kindly consider the entry below.
For record CASHQRTKRSAGNASASA [FS-1165] the listed furin cleavage Z-score is 8.79 (active)
